Test system: kochia (Kochia scoparia)
Assay: Test A preemergence, visual injury rating 0-100
Format: in vivo
Conditions: 500 g ai/ha
measurement name: Kochia plant response rating (0 to 100 scale)

>  <compound>
CC1=[N+]([O-])C(C(=O)Nc2cccc(F)c2F)C(c2ccc(Cl)c(F)c2)C1 (racemic)

>  <assayed target>
kochia (Kochia scoparia)

>  <recorded measurement>
90

$$$$
>  <compound>
CC1=[N+]([O-])C(C(=O)Nc2cccc(F)c2F)C(c2ccc(C(F)(F)F)cn2)C1 (racemic)

>  <assayed target>
kochia (Kochia scoparia)

>  <recorded measurement>
70

$$$$
>  <compound>
CC1=[N+]([O-])C(C(=O)Nc2cccc(F)c2Cl)C(c2ccc(C(F)(F)F)cc2)C1 (racemic)

>  <assayed target>
kochia (Kochia scoparia)

>  <recorded measurement>
80

$$$$
>  <compound>
CC1=[N+]([O-])C(C(=O)Nc2cccc(F)c2C#N)C(c2ccc(C(F)(F)F)cc2)C1 (racemic)

>  <assayed target>
kochia (Kochia scoparia)

>  <recorded measurement>
90

$$$$
>  <compound>
CC1=[N+]([O-])C(C(=O)Nc2cccc(F)c2F)C(c2cccc(C(F)(F)F)c2C)C1 (racemic)

>  <assayed target>
kochia (Kochia scoparia)

>  <recorded measurement>
70

$$$$
>  <compound>
CC1=[N+]([O-])C(C(=O)Nc2cccc(F)c2F)C(c2cccc(C)n2)C1 (racemic)

>  <assayed target>
kochia (Kochia scoparia)

>  <recorded measurement>
0

$$$$
>  <compound>
CC1=[N+]([O-])C(C(=O)Nc2cccc(F)c2F)C(c2cc(F)ccc2C)C1 (racemic)

>  <assayed target>
kochia (Kochia scoparia)

>  <recorded measurement>
50

$$$$
>  <compound>
CC1=[N+]([O-])C(C(=O)Nc2cccc(F)c2F)C(c2ccc(OC(F)(F)F)c(F)c2)C1 (racemic)

>  <assayed target>
kochia (Kochia scoparia)

>  <recorded measurement>
90

$$$$
>  <compound>
CC1=[N+]([O-])C(C(=O)Nc2cccc(F)c2F)C(c2ccc(F)c(Cl)c2)C1 (racemic)

>  <assayed target>
kochia (Kochia scoparia)

>  <recorded measurement>
40

$$$$
>  <compound>
CC1=[N+]([O-])C(C(=O)Nc2cccc(F)c2F)C(c2cc(F)cc(Oc3ccc(Cl)nc3)c2)C1 (racemic)

>  <assayed target>
kochia (Kochia scoparia)

>  <recorded measurement>
70

$$$$
>  <compound>
COc1cc(C)cc(C2CC(C)=[N+]([O-])C2C(=O)Nc2cccc(F)c2F)c1 (centres unmarked)

>  <assayed target>
kochia (Kochia scoparia)

>  <recorded measurement>
60

$$$$
>  <compound>
CC1=[N+]([O-])C(C(=O)Nc2cccc(F)c2F)C(c2ccc(Cl)c(C(F)(F)F)c2)C1 (racemic)

>  <assayed target>
kochia (Kochia scoparia)

>  <recorded measurement>
70

$$$$
>  <compound>
CC1=[N+]([O-])C(C(=O)Nc2cccnc2F)C(c2ccc(C(F)(F)F)cc2)C1 (racemic)

>  <assayed target>
kochia (Kochia scoparia)

>  <recorded measurement>
90

$$$$
>  <compound>
CC1=[N+]([O-])C(C(=O)Nc2cccc(F)c2F)C(c2cc(F)c(F)c(Oc3ncc(F)cn3)c2)C1 (racemic)

>  <assayed target>
kochia (Kochia scoparia)

>  <recorded measurement>
10

$$$$
>  <compound>
CC1=[N+]([O-])C(C(=O)Nc2ccc(F)cc2F)C(c2ccc(C(F)(F)F)cc2)C1 (racemic)

>  <assayed target>
kochia (Kochia scoparia)

>  <recorded measurement>
90

$$$$
>  <compound>
CC1=[N+]([O-])C(C(=O)Nc2cccc(F)c2F)C(c2cc(C)cc(CF)c2)C1 (racemic)

>  <assayed target>
kochia (Kochia scoparia)

>  <recorded measurement>
90

$$$$
>  <compound>
CC1=[N+]([O-])C(C(=O)Nc2ccc(F)c(F)c2F)C(c2ccc(C(F)(F)F)cc2)C1 (racemic)

>  <assayed target>
kochia (Kochia scoparia)

>  <recorded measurement>
90

$$$$
>  <compound>
CC1=[N+]([O-])C(C(=O)Nc2cccc(F)c2F)C(c2ccc(F)c(Oc3ncc(F)cn3)c2)C1 (racemic)

>  <assayed target>
kochia (Kochia scoparia)

>  <recorded measurement>
20

$$$$
>  <compound>
CC1=[N+]([O-])C(C(=O)Nc2cccc(F)c2F)C(c2cccc(Cl)c2F)C1 (centres unmarked)

>  <assayed target>
kochia (Kochia scoparia)

>  <recorded measurement>
70

$$$$
>  <compound>
CC1=[N+]([O-])C(C(=O)Nc2cccc(F)c2F)C(c2cc(C(F)(F)F)ccc2C)C1 (centres unmarked)

>  <assayed target>
kochia (Kochia scoparia)

>  <recorded measurement>
80

$$$$
>  <compound>
CC1=[N+]([O-])C(C(=O)Nc2cccc(F)c2F)C(c2cc(C)cc(Cl)c2)C1 (centres unmarked)

>  <assayed target>
kochia (Kochia scoparia)

>  <recorded measurement>
60

$$$$
>  <compound>
CC1=[N+]([O-])C(C(=O)Nc2cccc(F)c2F)C(c2ccc(=O)n(Cc3ccc(Cl)cc3)c2)C1 (racemic)

>  <assayed target>
kochia (Kochia scoparia)

>  <recorded measurement>
0

$$$$
>  <compound>
CC1=[N+]([O-])C(C(=O)Nc2cccc(F)c2F)C(c2cccc(C)c2C)C1 (racemic)

>  <assayed target>
kochia (Kochia scoparia)

>  <recorded measurement>
70

$$$$
>  <compound>
CC1=[N+]([O-])C(C(=O)Nc2cccc(F)c2F)C(c2cccc(Cl)c2C)C1 (racemic)

>  <assayed target>
kochia (Kochia scoparia)

>  <recorded measurement>
80

$$$$
>  <compound>
CC1=[N+]([O-])C(C(=O)Nc2cccc(F)c2F)C(c2ccc(C(F)(F)F)c(Cl)c2)C1 (racemic)

>  <assayed target>
kochia (Kochia scoparia)

>  <recorded measurement>
80

$$$$
>  <compound>
CC1=[N+]([O-])C(C(=O)Nc2cccc(F)c2F)C(c2cc(C)n(Cc3ccc(Cl)cc3)c(=O)c2)C1 (racemic)

>  <assayed target>
kochia (Kochia scoparia)

>  <recorded measurement>
0

$$$$
>  <compound>
CC1=[N+]([O-])C(C(=O)Nc2cccc(F)c2F)C(c2ccc(F)c(C(F)(F)F)c2)C1 (racemic)

>  <assayed target>
kochia (Kochia scoparia)

>  <recorded measurement>
80

$$$$
>  <compound>
CC1=[N+]([O-])C(C(=O)Nc2cccc(F)c2F)C(c2cccc(Oc3ccc(F)cc3)c2)C1 (racemic)

>  <assayed target>
kochia (Kochia scoparia)

>  <recorded measurement>
0

$$$$
>  <compound>
CC1=[N+]([O-])C(C(=O)Nc2cccc(F)c2F)C(c2cccc(C3OCCO3)c2)C1 (racemic)

>  <assayed target>
kochia (Kochia scoparia)

>  <recorded measurement>
60

$$$$

###

Barnyardgrass plant response rating overview
Tested on: barnyardgrass (Echinochloa crus-galli)
Assay: Test A postemergence, visual injury rating 0-100
Type: in vivo
Conditions: 31 g ai/ha, 0 to 100 scale

>  <compound>
CC1=[N+]([O-])[C@@H](C(=O)Nc2cccc(F)c2F)[C@H](c2ccc(F)c(F)c2)C1

>  <Barnyardgrass plant response rating>
0

$$$$
>  <compound>
CC1=[N+]([O-])C(C(=O)Nc2cccc(F)c2F)C(c2ccc(F)c(Oc3ccc(Cl)nc3)c2)C1 (racemic)

>  <Barnyardgrass plant response rating>
0

$$$$
>  <compound>
CC1=[N+]([O-])[C@@H](C(=O)Nc2cccc(F)c2F)[C@H](c2cccc(OC(C)C)c2)C1

>  <Barnyardgrass plant response rating>
20

$$$$
>  <compound>
CC1=[N+]([O-])C(C(=O)Nc2cccc(F)c2F)C(c2ccc(F)cc2)C1 (racemic)

>  <Barnyardgrass plant response rating>
10

$$$$
>  <compound>
CC1=[N+]([O-])[C@@H](C(=O)Nc2cccc(F)c2F)[C@H](c2cccc(C(F)(F)F)c2)C1

>  <Barnyardgrass plant response rating>
10

$$$$

###

System: pigweed (Amaranthus retroflexus)
Assay: Test A preemergence, visual injury rating 0-100
Assay type: in vivo
Settings: 500 g ai/ha, 0 to 100 scale
measurement name: Pigweed plant response rating

>  <compound>
CC1=[N+]([O-])C(C(=O)Nc2cccc(F)c2F)C(c2cccc(Cl)c2)C1 (racemic)

>  <recorded measurement>
70

$$$$
>  <compound>
CC1=[N+]([O-])C(C(=O)Nc2cccc(F)c2F)C(c2cccc(Br)c2)C1 (racemic)

>  <recorded measurement>
60

$$$$
>  <compound>
CC1=[N+]([O-])C(C(=O)Nc2cccc(F)c2F)C(c2ccccc2)C1 (racemic)

>  <recorded measurement>
70

$$$$
>  <compound>
CC1=[N+]([O-])C(C(=O)Nc2cccc(F)c2F)C(c2cccc(C#N)c2)C1 (racemic)

>  <recorded measurement>
0

$$$$
>  <compound>
CC1=[N+]([O-])C(C(=O)Nc2cccc(F)c2F)C(c2ccc(C)c(C)c2)C1 (racemic)

>  <recorded measurement>
50

$$$$
>  <compound>
CC1=[N+]([O-])C(C(=O)Nc2cccc(F)c2F)C(c2cccc(C)c2)C1 (racemic)

>  <recorded measurement>
0

$$$$
>  <compound>
CC1=[N+]([O-])[C@H](C(=O)Nc2cccc(F)c2F)[C@@H](c2ccc(C)cc2)C1 (relative stereo)

>  <recorded measurement>
90

$$$$
>  <compound>
CC1=[N+]([O-])[C@@H](C(=O)Nc2cccc(F)c2F)[C@H](c2ccc(Cl)cc2)C1 (relative stereo)

>  <recorded measurement>
90

$$$$
>  <compound>
CC1=[N+]([O-])[C@@H](C(=O)Nc2cccc(F)c2F)[C@H](c2ccc(C(F)(F)F)cc2)C1 (relative stereo)

>  <recorded measurement>
90

$$$$
>  <compound>
CC1=[N+]([O-])C(C(=O)Nc2ccccc2)C(c2ccc(F)c(F)c2)C1 (racemic)

>  <recorded measurement>
0

$$$$
>  <compound>
CC1=[N+]([O-])C(C(=O)Nc2cccc(F)c2F)C(c2ccccc2F)C1 (racemic)

>  <recorded measurement>
0

$$$$
>  <compound>
CC1=[N+]([O-])C(C(=O)Nc2cccc(F)c2F)C(c2ccc3c(c2)OCO3)C1 (racemic)

>  <recorded measurement>
90

$$$$
>  <compound>
CC1=[N+]([O-])C(C(=O)Nc2cccc(F)c2F)C(c2c(F)cccc2Cl)C1 (racemic)

>  <recorded measurement>
0

$$$$
>  <compound>
CC1=[N+]([O-])C(C(=O)Nc2cccc(C#N)c2F)C(c2ccc(C(F)(F)F)cc2)C1 (racemic)

>  <recorded measurement>
100

$$$$
>  <compound>
CC1=[N+]([O-])C(C)(C(=O)Nc2cccc(F)c2F)C(c2ccc(C(F)(F)F)cc2)C1 (racemic)

>  <recorded measurement>
80

$$$$
>  <compound>
CC1=[N+]([O-])C(C(=O)Nc2cccc(F)c2F)C(c2ccc(Br)cc2)C1 (racemic)

>  <recorded measurement>
80

$$$$
>  <compound>
CC1=[N+]([O-])[C@H](C(=O)Nc2cccc(F)c2F)[C@@H](c2ccc3c(c2)OC(F)(F)O3)C1 (relative stereo)

>  <recorded measurement>
90

$$$$
